Reference for the values: patent US20220389013A1

Experiment: Pharmacokinetic (PK) experiment in rats by gavage
Assay type: in vivo
Conditions: rat, plasma, po, male SD rats, 20 mg/kg
Let's look at some molecules and their measured Cmax.
Please give a number only; it is taken to be in ng/mL.

The reported Cmax of the molecule C=CC(=O)N1C[C@H](C)N(c2nc(=O)n(-c3c(C)ccnc3C(C)C)c3nc(-c4c(F)ccc5ccoc45)c(F)cc23)C[C@H]1C [Compound 89] was 4300

The molecule C=CC(=O)N1CCN(c2nc(=O)n(-c3c(C)ccnc3C(C)C)c3nc(-c4c(F)ccc5ccoc45)c(Cl)cc23)[C@@H](C)C1 (single isomer, unassigned) [Compound 73-1] showed Cmax equal to 1750

Briefly, Cmax measured for C=CC(=O)N1CCN(c2nc(=O)n(-c3c(C)ccnc3C(C)C)c3nc(-c4c(O)cccc4F)c(F)cc23)[C@@H](C)C1 (atropisomer, axis not shown) [AMG510, reference compound] : 3250

Recorded result, C=CC(=O)N1C[C@H](C)N(c2nc(=O)n(-c3c(C)ccnc3C(C)C)c3nc(-c4c(F)ccc5ccoc45)c(Cl)cc23)C[C@H]1C [Compound 90] , Cmax: 5610

Given item C=CC(=O)N1CCN(c2nc(=O)n(-c3c(C(C)C)ccnc3C(C)C)c3nc(-c4c(F)ccc5ccoc45)c(Cl)cc23)[C@@H](C)C1 , the value recorded as its Cmax is 1630

Continuing:
Sample C=CC(=O)N1CCN(c2nc(=O)n(-c3c(C)ccnc3C(C)C)c3nc(-c4c(F)ccc5c4OCO5)c(F)cc23)[C@@H](C)C1 ; Cmax observed: 4390

Entry under test: C=CC(=O)N1CCN(c2nc(=O)n(-c3c(C)ccnc3C(C)C)c3nc(-c4c(F)ccc5ccoc45)c(F)cc23)[C@@H](C)C1 (single isomer, unassigned) . Its Cmax was 3530

---

test readout: melting point

In the examples that follow, each entry is paired with its recorded melting point.
The reported melting point of the molecule COC/C=C/C(=O)N1CCN(c2nc(=O)n(-c3c(C)ccnc3C(C)C)c3nc(-c4cc5ccoc5cc4F)c(F)cc23)[C@@H](C)C1 [Compound 115] was 136 to 138 °C

// melting point value for C=CC(=O)N1CCN(c2nc(=O)n(-c3c(C#N)cccc3C(C)C)c3nc(-c4c(F)ccc5ccoc45)c(F)cc23)[C@@H](C)C1 [Compound 123] : 146 to 149 °C

Others:
So for C=CC(=O)N1CCN(c2nc(=O)n(-c3c(C(C)C)ncnc3C(C)C)c3nc(-c4c(F)ccc5ccoc45)c(Cl)cc23)[C@@H](C)C1 [Compound 118] , the logged melting point turned out to be 254 to 256 °C

melting point measured on C=CC(=O)N1CCN(c2nc(=O)n(-c3c(CO)cccc3C(C)C)c3nc(-c4c(F)ccc5ccoc45)c(F)cc23)[C@@H](C)C1 [Compound 126] = 146 to 149 °C

Documented melting point of C=CC(=O)N1C[C@H](C)N(c2nc(=O)n(-c3c(C)ccnc3C(C)C)c3nc(-c4c(F)ccc5ccoc45)c(F)cc23)C[C@H]1C [Compound 89] : 147 to 149 °C

Reported melting point ( C=CC(=O)N1CCN(c2nc(=O)n(-c3c(C)ccnc3C(C)C)c3nc(-c4c(F)ccc5ccsc45)c(F)cc23)[C@@H](C)C1 [Compound 71] ) = 148 to 150 °C

Just so you know, measured melting point for C=CC(=O)N1C[C@H](C)N(c2nc(=O)n(-c3c(C)ccnc3C(C)C)c3nc(-c4c(F)c(F)cc5ccoc45)c(F)cc23)C[C@H]1C (atropisomer, axis not shown; (P)) [Compound 91-2] came out at 161 to 173 °C

Lab note: measured melting point of C=CC(=O)N1CCN(c2nc(=O)n(-c3c(C)ccnc3C(C)C)c3nc(-c4c(F)ccc5ncsc45)c(F)cc23)[C@@H](C)C1 [Compound 78] was 158 to 162 °C

Quick note, melting point for C=CC(=O)N1C[C@H](C)N(c2nc(=O)n(-c3c(C)ccnc3C(C)C)c3nc(-c4c(F)c(F)cc5ccoc45)c(F)cc23)C[C@H]1C (single isomer, unassigned) [Compound 91-1] landed at 156 to 158 °C

Lookup result for C=CC(=O)N1C[C@H](C)N(c2nc(=O)n(-c3c(C)ccnc3C(C)C)c3nc(-c4c(F)ccc5ccoc45)c(Cl)cc23)C[C@H]1C (atropisomer, axis not shown; (P)) [Compound 90-2] ; measured melting point: 152 to 161 °C

---

test readout: melting point

Example entries and their recorded answers appear below.
C=CC(=O)N1CCN(c2nc(=O)n(-c3c(C#N)cccc3C(C)C)c3nc(-c4c(F)ccc5ccoc45)c(Cl)cc23)[C@@H](C)C1 has a reported melting point of 164 to 166 °C

Recorded result, C=CC(=O)N1CCN(c2nc(=O)n(-c3c(C)ccnc3C(C)C)c3nc(-c4c(C)ccc5ccoc45)c(F)cc23)[C@@H](C)C1 , melting point: 151 to 163 °C

Lab note: measured melting point of C=CC(=O)N1CCN(c2nc(=O)n(-c3c(C)nc(C)nc3C(C)C)c3nc(-c4c(F)ccc5ccoc45)c(F)cc23)[C@@H](C)C1 was 133 to 136 °C

Form: compound = C=CC(=O)N1CCN(c2nc(=O)n(-c3c(C)ccnc3C(C)C)c3nc(-c4c(F)c(OC)cc5ccoc45)c(Cl)cc23)[C@@H](C)C1 ; melting point = 101 to 113 °C

Proceeding to the next compound to report its melting point.
Kindly note the recorded melting point for Cc1ccnc(C(C)C)c1-n1c(=O)nc(N2CCN(C(=O)/C=C/CN(C)C)C[C@@H]2C)c2cc(F)c(-c3cc4ccoc4cc3F)nc21 , which is 162 to 164 °C
